ASSAY EXPLANATION: in vivo
Parameters: species or system SCID mice
CONDITION INFO: SCID, mouse, iv, 10 pmol peptide, total radioactivity, %ID/g tissue, Femur
MEASUREMENT KIND: tissue uptake at 24 h (%ID/g)
Provide only the numeric value, understood in %ID/g.

Query string: Looking for the measured tissue uptake at 24 h of CSCC[C@H](NC(=O)[C@H](Cc1c[nH]c2ccccc12)NC(=O)CNC(=O)[C@H](Cc1ccc(O)cc1)NC(=O)[C@H](C)NC(=O)[C@@H](CCC(=O)O)NC(=O)[C@@H](CCC(=O)O)NC(=O)[C@@H](CCC(=O)O)NC(=O)[C@@H](CCC(=O)O)NC(=O)[C@@H](CCC(=O)O)NC(=O)[C@@H](CCC(=O)O)NC(=O)CN1CCN(CC(=O)O)CCN(CC(=O)O)CCN(CC(=O)O)CC1)C(=O)N[C@@H](CC(=O)O)C(=O)N[C@@H](Cc1ccccc1)C(N)=O [^111In-CP04, metal not drawn] , can you help?
Result string: 0.24

---

ASSAY EXPLANATION: in vivo
Design: species or system SCID mice
CONDITION INFO: SCID, mouse, iv, 10 pmol peptide, total radioactivity, %ID/g tissue, Stomach
MEASUREMENT KIND: tissue uptake at 1 h
Kindly format the answer as number then unit.

Query string: Using the record for CSCC[C@H](NC(=O)[C@H](Cc1c[nH]c2ccccc12)NC(=O)CNC(=O)[C@H](Cc1ccc(O)cc1)NC(=O)[C@H](C)NC(=O)[C@@H](CCC(=O)O)NC(=O)[C@@H](CCC(=O)O)NC(=O)[C@@H](CCC(=O)O)NC(=O)[C@@H](CCC(=O)O)NC(=O)[C@@H](CCC(=O)O)NC(=O)[C@@H](CCC(=O)O)NC(=O)CN1CCN(CC(=O)O)CCN(CC(=O)O)CCN(CC(=O)O)CC1)C(=O)N[C@@H](CC(=O)O)C(=O)N[C@@H](Cc1ccccc1)C(N)=O [^111In-CP04, metal not drawn] , report its tissue uptake at 1 h.
Result string: 2.6 %ID/g

---

ASSAY EXPLANATION: in vivo
Parameters: species or system SCID mice
CONDITION INFO: SCID, mouse, iv, 10 pmol peptide, total radioactivity, %ID/g tissue, Heart
MEASUREMENT KIND: tissue uptake at 24 h (%ID/g)
Please respond with the number in %ID/g and leave the unit unwritten.

Query string: Field request: tissue uptake at 24 h | item: CSCC[C@H](NC(=O)[C@H](Cc1c[nH]c2ccccc12)NC(=O)CNC(=O)[C@H](Cc1ccc(O)cc1)NC(=O)[C@H](C)NC(=O)[C@@H](CCC(=O)O)NC(=O)[C@@H](CCC(=O)O)NC(=O)[C@@H](CCC(=O)O)NC(=O)[C@@H](CCC(=O)O)NC(=O)[C@@H](CCC(=O)O)NC(=O)[C@@H](CCC(=O)O)NC(=O)CN1CCN(CC(=O)O)CCN(CC(=O)O)CCN(CC(=O)O)CC1)C(=O)N[C@@H](CC(=O)O)C(=O)N[C@@H](Cc1ccccc1)C(N)=O [^111In-CP04, metal not drawn]
Result string: 0.02

---

ASSAY EXPLANATION: in vivo
Parameters: species or system Swiss albino mice
CONDITION INFO: Swiss albino, mouse, iv, 10 pmol peptide, total radioactivity, %ID/g tissue, Spleen
MEASUREMENT KIND: tissue uptake at 4 h (%ID/g)
All answers are understood in %ID/g, so give the number only.

Query string: Sample CSCC[C@H](NC(=O)[C@H](Cc1c[nH]c2ccccc12)NC(=O)CNC(=O)[C@H](Cc1ccc(O)cc1)NC(=O)[C@H](C)NC(=O)[C@@H](CCC(=O)O)NC(=O)[C@@H](CCC(=O)O)NC(=O)[C@@H](CCC(=O)O)NC(=O)[C@@H](CCC(=O)O)NC(=O)[C@@H](CCC(=O)O)NC(=O)[C@@H](CCC(=O)O)NC(=O)CN1CCN(CC(=O)O)CCN(CC(=O)O)CCN(CC(=O)O)CC1)C(=O)N[C@@H](CC(=O)O)C(=O)N[C@@H](Cc1ccccc1)C(N)=O [^111In-CP04, metal not drawn] — what was its tissue uptake at 4 h?
Result string: 0.05

---

ASSAY EXPLANATION: in vivo
Set-up: species or system Swiss albino mice
CONDITION INFO: Swiss albino, mouse, iv, 10 pmol peptide, total radioactivity, %ID/g tissue, Stomach
Protocol: Samples of blood and tissues of interest were excised, weighted and counted for radioactivity in the gamma counter (automated well-type multi-sample gamma counter; NaI(Tl) 3'' crystal, Canberra Packard Auto-Gamma 5000 series instrument). Data was calculated as percent injected dose per gramtissue (%ID/g) with the aid of suitable standards of the injected dose. […] The number of exponentials in the fitted curve was analysed according to the […] […]
MEASUREMENT KIND: tissue uptake at 4 h (%ID/g)
# number only, unit %ID/g dropped from output

Query string: Give its tissue uptake at 4 h value. Item: CSCC[C@H](NC(=O)[C@H](Cc1c[nH]c2ccccc12)NC(=O)CNC(=O)[C@H](Cc1ccc(O)cc1)NC(=O)[C@H](C)NC(=O)[C@@H](CCC(=O)O)NC(=O)[C@@H](CCC(=O)O)NC(=O)[C@@H](CCC(=O)O)NC(=O)[C@@H](CCC(=O)O)NC(=O)[C@@H](CCC(=O)O)NC(=O)[C@@H](CCC(=O)O)NC(=O)CN1CCN(CC(=O)O)CCN(CC(=O)O)CCN(CC(=O)O)CC1)C(=O)N[C@@H](CC(=O)O)C(=O)N[C@@H](Cc1ccccc1)C(N)=O [^111In-CP04, metal not drawn]
Result string: 2.61

---

ASSAY EXPLANATION: in vivo
Parameters: species or system SCID mice
CONDITION INFO: SCID, mouse, iv, 10 pmol peptide, total radioactivity, %ID/g tissue, Lung
MEASUREMENT KIND: tissue uptake at 1 h (%ID/g)
Give the value, in units of %ID/g, as a plain number.

Query string: Entry CSCC[C@H](NC(=O)[C@H](Cc1c[nH]c2ccccc12)NC(=O)CNC(=O)[C@H](Cc1ccc(O)cc1)NC(=O)[C@H](C)NC(=O)[C@@H](CCC(=O)O)NC(=O)[C@@H](CCC(=O)O)NC(=O)[C@@H](CCC(=O)O)NC(=O)[C@@H](CCC(=O)O)NC(=O)[C@@H](CCC(=O)O)NC(=O)[C@@H](CCC(=O)O)NC(=O)CN1CCN(CC(=O)O)CCN(CC(=O)O)CCN(CC(=O)O)CC1)C(=O)N[C@@H](CC(=O)O)C(=O)N[C@@H](Cc1ccccc1)C(N)=O [^111In-CP04, metal not drawn] has what tissue uptake at 1 h?
Result string: 0.47

---

ASSAY EXPLANATION: in vivo
Parameters: species or system Swiss albino mice
CONDITION INFO: Swiss albino, mouse, iv, 10 pmol peptide, total radioactivity, %ID/g tissue, Femur
MEASUREMENT KIND: tissue uptake at 0.5 h (%ID/g)
Numbers only here, please. The scale is %ID/g.

Query string: Reported tissue uptake at 0.5 h for CSCC[C@H](NC(=O)[C@H](Cc1c[nH]c2ccccc12)NC(=O)CNC(=O)[C@H](Cc1ccc(O)cc1)NC(=O)[C@H](C)NC(=O)[C@@H](CCC(=O)O)NC(=O)[C@@H](CCC(=O)O)NC(=O)[C@@H](CCC(=O)O)NC(=O)[C@@H](CCC(=O)O)NC(=O)[C@@H](CCC(=O)O)NC(=O)[C@@H](CCC(=O)O)NC(=O)CN1CCN(CC(=O)O)CCN(CC(=O)O)CCN(CC(=O)O)CC1)C(=O)N[C@@H](CC(=O)O)C(=O)N[C@@H](Cc1ccccc1)C(N)=O [^111In-CP04, metal not drawn] : what is it?
Result string: 4.62

---

ASSAY EXPLANATION: in vivo
Parameters: species or system Swiss albino mice
CONDITION INFO: Swiss albino, mouse, iv, 10 pmol peptide, total radioactivity, %ID/g tissue, Intestines
MEASUREMENT KIND: tissue uptake at 72 h (%ID/g)
// return numeric value only (unit: %ID/g, not printed)

Query string: Value lookup for tissue uptake at 72 h; key = CSCC[C@H](NC(=O)[C@H](Cc1c[nH]c2ccccc12)NC(=O)CNC(=O)[C@H](Cc1ccc(O)cc1)NC(=O)[C@H](C)NC(=O)[C@@H](CCC(=O)O)NC(=O)[C@@H](CCC(=O)O)NC(=O)[C@@H](CCC(=O)O)NC(=O)[C@@H](CCC(=O)O)NC(=O)[C@@H](CCC(=O)O)NC(=O)[C@@H](CCC(=O)O)NC(=O)CN1CCN(CC(=O)O)CCN(CC(=O)O)CCN(CC(=O)O)CC1)C(=O)N[C@@H](CC(=O)O)C(=O)N[C@@H](Cc1ccccc1)C(N)=O [^111In-CP04, metal not drawn]
Result string: 0.09

Reference source: paper PMC4948680
